Provide the recorded plasma concentration for the entries that follow.
Conditions: Patient ID 132, CYP2D6 functional group EM/EM
One number for each entry, in ng/mL.

Some solved cases for reference:
CC(O)C(=C(c1ccccc1)c1ccc(OCCN(C)C)cc1)c1ccccc1 (racemic) [(Z)-a-OH-Tam]
0.056
CCC(=C(c1ccccc1)c1ccc(OCCNC)cc1)c1ccc(O)cc1 [4'-OH-NDM-Tam]
4.478
CC/C(=C(\c1ccccc1)c1ccc(OCCN(C)C)cc1)c1ccc(O)cc1 [4'-OH-Tam]
2.98
CC/C(=C(\c1ccccc1)c1ccc(OCCN(C)C)cc1)c1ccccc1 [Tamoxifen]
212.25
CC/C(=C(/c1ccc(OCCNC)cc1)c1ccc(O[C@@H]2O[C@H](C(=O)O)[C@@H](O)[C@H](O)[C@H]2O)cc1)c1ccccc1 [4-OH-NDM-Tam-Gluc]
1.395

Take each entry in turn and give its plasma concentration.
1. CC(O)C(=C(c1ccccc1)c1ccc(OCCN(C)C)cc1)c1ccccc1 (racemic) [(E)-a-OH-Tam]
2. CC/C(=C(\c1ccc(O)cc1)c1ccc(OCCNC)cc1)c1ccccc1 [(Z)-Endoxifen 3-OH-NDM-Tam]

OUT:
0.412
9.41
